Value source: patent US7329737

Measurement target: T1, hK1 (human tissue kallikrein 1), recombinant (human, UniProt P06870 25-262)
T1 construct: Expressed in P. pastoris from KLK1 cDNA and purified; enzymatically active; also called KLK1; Recombinant (Pichia) Kallikrein
Assay procedure: SPR
As shown below, each of these binders has a reported log10 of koff value.
Reported property: log10 of koff (log10 of the value in s⁻¹)

| Binder | Recorded number |
| --- | --- |
| M0128-F11 (Fab, V domains shown) VH: EVQLLESGGGLVQPGGSLRLSCAASGFTFSFYVMGWVRQAPGKGLEWVSWIGPSGGRTWYADSVKGRFTISRDNSKNTLYLQMNSLRAEDTAVYYCARDRGWYGIDVWGQGTTVTVSS VL: DIQMTQSPSSLSASVGDRVTITCRASQYISTYLAWYQQKPGKAPKLLIYKASDLESGVPSRFSGSGSGTEFTLTINSLQPDDFATYYCQQYNTYWTFGHGTKVEIKR | -1.84 |
| M0093-C10 (Fab, V domains shown) VH: EVQLLESGGGLVQPGGSLRLSCAASGFTFSRYTMEWVRQAPGKGLEWVSVIRPSGGTTMYADSVKGRFTISRDNSKNTLYLQMNSLRAEDMAVYYCARVGVWYGMDVWGQGTTVTVSS VL: DIQITQSPSSLSASVGDRVTITCRASQGISNYLAWYQQKPGKVPKLLIYAASTLQSGVPSRFSGSGSGTDFTLTISSLQPEDFATYYCEQLNSFPHAFGQGTKVEIKR | -2.12 |
| M0119-B09 (Fab, V domains shown) VH: EVQLLESGGGLVQPGGSLRLSCAASGFTFSWYWMYWVRQAPGKGLEWVSVIGSSGGVTKYADSVKGRFTISRDNSKNTLYLQMNSLRAEDTATYYCARGPYRGYFDYWGQGTLVTVSS VL: DIQMTQSPATLSVSPGEGATLSCRASQSVGNSLAWYQQKPGQAPRVLVYGASTRASGIPARFSGSGSVTEFTLTISSLQSEDFAVYYCQEYNKWPITFGQGTRLERKR | -2.32 |
| M0107-D01 (Fab, V domains shown) VH: EVQLLESGGGLVQPGGSLRLSCAASGFTFSWYGMGWVRQAPGKGLEWVSVIRPSGGTTRYADSVKGRFTISRDNSKNTLYLQMNSLRAEDTAVYYCARGGRYYSLDYWGQGTLVTVSS VL: AQSELTQPASVSGPPGQSITISCTGTSSDVGGYNYVSWYQQHPGKAPKLIIYEVSNRPSGVSYRFSASKSDNTASLTISGVQAEDEADYYCSSYKRGGTYVFGTGTTVIVL | -2.09 |
| M0106-E12 (Fab, V domains shown) VH: EVQLLESGGGLVQPGGSLRLSCAASGFTFSHYNMTWVRQAPGKGLEWVSSIWPSGGATRYADSVKGRFTISRDNSKNTLYLQMNSLRAEDTAVYYCARTSRFYGMDVWGQGTTVTVSS VL: DIQMTQSPGTLSLSPGERATLSCRPSQSVYSNYLAWYQQKPGQAPRLLIYGASTRATGIPDRFSGSASGTDFTLTISRLEPEDFAVYYCQQYGNSYTFGPGTKVDIKR | 0.39 |
